biological target: Fibroblast growth factor 10 (Homo sapiens) (UniProt O15520); assay: compounds binding fibroblast growth factor 10 – biochemical, small-molecule microarray, 635 nm fluorescence, primary screen (AID 1102); conditions: FGF10 binding, fluorescence 635 nm, higher = more signal
Sequence (O15520 whole entry, looked up): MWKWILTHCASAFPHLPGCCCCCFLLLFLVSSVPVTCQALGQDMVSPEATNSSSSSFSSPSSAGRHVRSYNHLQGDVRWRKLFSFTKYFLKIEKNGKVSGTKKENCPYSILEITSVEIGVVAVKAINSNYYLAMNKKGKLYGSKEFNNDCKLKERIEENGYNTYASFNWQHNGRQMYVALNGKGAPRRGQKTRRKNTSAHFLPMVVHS
Assign 1.0 to entries whose composite z-score meets or exceeds 0.9; assign 0.0 to the rest.

• [N-]=[N+]=Nc1ccccc1C[C@]1(C(=O)N2CCOCC2)N=C(c2ccc(OCCCO)cc2)O[C@H]1c1ccccc1N=[N+]=[N-] = 1.0

(Q) Does the reported composite z-score for NC(=O)N1C(=O)C2C(C1=O)C1C=C(CCCO)C2C(c2ccc(CN3CCCC3)cc2)N1Cc1cc2c(cc1Br)OCO2 (configuration not stated) fall at or above the 0.9 mark?
(A) 0.0

(Q) Does the reported composite z-score for COc1ccc(C(O)C2C=CC3C(=O)N(c4ccccc4)C(=O)C3N2Nc2ccc(C#N)cc2)cc1OCc1ccccc1 (configuration not stated) fall at or above the 0.9 mark?
(A) 0.0

(Q) Does the reported composite z-score for CC(C)N1C(=O)c2ccccc2[C@@H](C(=O)NCC(F)(F)F)[C@@H]1c1ccc(CO)cc1 fall at or above the 0.9 mark?
(A) 0.0

(Q) Does the reported composite z-score for COc1ccc(C(=O)Nc2cccc(CN3C(=O)[C@@]4(O[C@@H](CC(=O)N5CCC[C@H]5CO)[C@H]([Si](C)(C)c5ccc(OC)cc5)[C@H]4C)c4ccccc43)c2)cc1 fall at or above the 0.9 mark?
(A) 0.0

(Q) Does the reported composite z-score for CC(C)=CCCC(C)=CC(O)C1C=CC2C(=O)NC(=O)C2N1Nc1ccccn1 (configuration not stated) fall at or above the 0.9 mark?
(A) 1.0

====

Overview of reported z-score across a group of compounds:
assay: compound effects on differentiated 3T3-L1 adipocyte viability – cell-based, 3T3-L1 adipocytes, calcein-AM fluorescence, 48 h, basal, profiling panel (AID 1163); details: 3T3-L1 adipocytes viability, higher = more signal; further: test concentration not given here
Give only the figure.

// worked examples, z-score included
- CN(C)CCCC[C@@H]1NC(=O)[C@H]2C[C@@H](C(=O)O)[C@@H](c3ccc(O)cc3)N2C1=O: 1.73
- COC(=O)[C@@]1(Cc2ccccc2)[C@H]2c3cc(C(=O)N4CCCC4)n(Cc4ccc(OC)c(OC)c4)c3C[C@H]2CN1C(=O)c1ccccc1: 0.106
- C=CC[C@@]12N=C(c3ccc(OCCCO)cc3)O[C@@H]1c1ccccc1N(CCC)C2=O: 0.96

(Q) # input compound: COC(=O)[C@@]1(Cc2ccccc2)[C@H]2c3cc(C(=O)N(C)C)n(Cc4ccc(S(C)(=O)=O)cc4)c3C[C@H]2CN1C(=O)c1ccccc1 ; wanted: its z-score
(A) 1.09

(Q) # input compound: COC(=O)[C@@]1(Cc2ccc(F)cc2)[C@H]2c3cc(C(=O)N4CCCC4)n(Cc4cc(F)cc5c4OCOC5)c3C[C@H]2CN1C(=O)c1ccccc1 ; wanted: its z-score
(A) 0.364

(Q) # input compound: O=C1c2ccccc2[C@@]2(Cc3ccccc3N(Cc3ccccc3)C2=O)[C@H](c2ccc(CO)cc2)N1Cc1ccccc1Cl ; wanted: its z-score
(A) 0.331

(Q) # input compound: COc1ccc([Si](C)(C)[C@H]2[C@H](CC(=O)N3Cc4ccccc4C[C@H]3CO)O[C@@]3(C(=O)N(C)c4ccccc43)[C@@H]2C)cc1 ; wanted: its z-score
(A) 1.43

(Q) # input compound: COCCOC(=O)N1C(=O)[C@@]2(c3cc(C#CCC(C(=O)OC)C(=O)OC)ccc31)[C@H](C(=O)Nc1nc3ccccc3s1)[C@H]1C(=O)O[C@H](c3ccccc3)[C@H](c3ccccc3)N1[C@@H]2c1ccc(O)cc1 ; wanted: its z-score
(A) 0.401

(Q) # input compound: O=C(O)[C@H](Cc1ccccc1)n1cc(C2(O)CCCCC2)nn1 ; wanted: its z-score
(A) -1.54

====

biological target: Torsin-1A-interacting protein 2 (Homo sapiens); test: small molecules binding lysate-expressed LULL1 – cell lysate, human LULL1 lysate, 635/667 nm fluorescence, primary screen (AID 1092); conditions: small-molecule microarray, hLULL1 lysate binding, 635 nm fluorescence; higher = more signal;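 further: probe is lysate of COS7 cells overexpressing human LULL1; score merges per-feature 667 nm fluorescence with signal-to-noise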
Readout Name: composite z-score
Give only the figure.

• C=CCNC(=O)[C@H]1[C@@H]2C(=O)O[C@@H](c3ccccc3)[C@@H](c3ccccc3)N2[C@@H](c2ccc(OCCO)cc2)[C@]12C(=O)Nc1ccccc12 = 3.36
• Cc1ccc(S[C@]2(C(=O)NC3CC3)CC(=O)N(C(C)C)[C@@H]2c2ccc(CO)cc2I)cc1 = 2.83
• O=C1[C@H]2C=C(I)[C@H](C[C@@H]2c2ccccc2)[C@@]12CO2 = -0.0459
• N#Cc1ccc(NN2C(C(O)C3CC=CCC3)C=CC3C(=O)N(c4ccccc4)C(=O)C32)cc1 (stereo not drawn) = 3.5

(Q) Lab note: need composite z-score for NC(=O)N1C(=O)C2C(C1=O)C1C=C(CCCO)C2C(c2ccc(CN3CCCC3)cc2)N1Cc1sc2ccccc2c1Cl (stereo not drawn) on Torsin-1A-interacting protein 2 (Homo sapiens), anyone have it?
(A) 1.97

(Q) Lab note: need composite z-score for CC1CC/C=C\[C@H]2OC34C=CCN(Cc5ccccc5)C(=O)[C@H]3N(CCCCCCO)C(=O)[C@@H]4C2C(=O)O1 (stereo partly drawn) on Torsin-1A-interacting protein 2 (Homo sapiens), anyone have it?
(A) 2.31

(Q) Lab note: need composite z-score for N#Cc1ccc(-c2cccc(=O)o2)cc1 on Torsin-1A-interacting protein 2 (Homo sapiens), anyone have it?
(A) 0.552

(Q) Lab note: need composite z-score for C[C@@H]1ON(c2ccccc2)[C@H](c2ccccc2)[C@H]1C(=O)O on Torsin-1A-interacting protein 2 (Homo sapiens), anyone have it?
(A) -0.0551

====

test: hepatitis C replication reporter changes, two-sided – Huh7 cells, luciferase reporter, HCV replication inhibitor project, primary screen (AID 1109); conditions: Huh7 HCV replicon luciferase reporter, 48 h; higher = more signal;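 further: huh7 hepatoma cells harbouring a luciferase neomycin HCV replicon reporter; luciferase luminescence as measure of HCV replicon replication; test concentration not given here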
Overview of reported z-score across a group of compounds:
Give only the figure.

// worked examples, z-score included
- C=C(COC)/C(=C/C[C@H](OC(C)=O)c1ccccc1OCCO)c1cc(C(=O)OC)ccc1OC: -1.91
- CC(C)(C)N1CC=CC23O[C@@H]4/C=C\CCCOC(=O)C4[C@H]2C(=O)N(CCCO)[C@@H]3C1=O (some centres undefined): 0.0578
- O=C(NCCN1CCOCC1)[C@@H]1c2ccccc2C(=O)N(Cc2ccc(OC(F)(F)F)cc2)[C@H]1c1ccc(CO)cc1: -1.29

The record that follows has no z-score shown yet.
(Q) # input compound: CC1CC/C=C\[C@H]2OC34C=CCN(C(C)(C)C)C(=O)[C@H]3N(CCCO)C(=O)[C@@H]4C2C(=O)O1 (some centres undefined) ; wanted: its z-score
(A) -0.751

====

tested on: Plasmodium falciparum Sir2 (PF13_0152, Sir2A); assay: Plasmodium falciparum Sir2A binding compounds – biochemical, small-molecule microarray, 635 nm fluorescence, primary screen (AID 1098); conditions: fluorescence 635 nm, higher = more signal;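 further: score merges spot fluorescence intensity with its signal-to-noise ratio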
Readout Name: composite z-score
Give only the figure.

- CC1CC/C=C\[C@H]2OC34C=CCN(CCN5CCOCC5)C(=O)[C@H]3N(CCCO)C(=O)[C@@H]4C2C(=O)O1 (stereo partly drawn): 0.367
- CCCN1C(=O)[C@@]2(c3ccc([N+](=O)[O-])cc3)CC(=O)N(CC34CC5CC(CC(C5)C3)C4)[C@@H]2c2ccc(CO)cc21: -0.596
- COC(=O)[C@@]1(Cc2ccc(F)cc2)[C@H]2c3cc(C(=O)N4CCCC4)n(CCc4ccccn4)c3C[C@H]2CN1C(=O)c1ccccc1: 0.785
- O=C(NCCN1CCOCC1)[C@@H]1c2ccccc2C(=O)N(Cc2ccccc2C(F)(F)F)[C@H]1c1ccc(CO)cc1: 0.99
- C=CCN1C(=O)[C@@]2(O[C@@H](CCn3cc([C@H](O)c4ccccc4)nn3)[C@H]([Si](C)(C)c3ccc(OC)cc3)[C@H]2C)c2cc(N3C(=O)c4cccc5cccc3c45)ccc21: 0.0764
- CC(C)(C)N1CC=CC23O[C@@H]4C=CCOC(=O)[C@@H]4[C@H]2C(=O)N(CCO)[C@@H]3C1=O (stereo partly drawn): 1.75
- Cc1ccc(N2C(=O)c3ccccc3[C@](C)(C(=O)NCCCN(C)C)[C@@H]2c2ccc(CO)cc2)nc1: 0.485

The record that follows has no composite z-score shown yet.
(Q) # input molecule: CCCCC(O)C1C=CC2C(=O)N(c3ccccc3)C(=O)C2N1Nc1ccccc1 (stereo not drawn) ; wanted: its composite z-score
(A) 0.664

====

Overview of reported z-score across a group of compounds:
molecular target: Luciferin 4-monooxygenase (Photinus pyralis); test: inhibition of purified Photinus pyralis luciferase – biochemical, luminescence, purified enzyme, 2006 set, primary screen (AID 1141); details: purified firefly luciferase, SteadyGlo luminescence, 30 min; higher = more signal, called active from +8 up or from −8 down;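 further: cell-free assay with purified firefly luciferase at 100 ng per well in PBS; test concentration not given here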
Give only the figure.

(Q) # input compound: COc1cc(CO)cc(I)c1O[C@H]1C=C(C(=O)NCCO)C[C@@H](NC2CCCCCC2)[C@@H]1O ; wanted: its z-score
(A) 4.69

(Q) # input compound: [N-]=[N+]=Nc1ccccc1C[C@@]1(C(=O)NCC(O)CO)N=C(c2ccc(OCCCO)cc2)O[C@@H]1c1ccccc1 (stereo partly drawn) ; wanted: its z-score
(A) -2.44

(Q) # input compound: CC(C)=CCCC(C)=CC(O)C1C=CC2C(=O)NC(=O)C2N1Nc1ccc(Cl)cc1Cl (stereo not drawn) ; wanted: its z-score
(A) -0.889
